System: Vero E6 cells
Settings: read-out: Vero E6 cytotoxicity CC50; Table 2 quenching compounds
Assign CC50 to each entry below.
The answer should read as a number with its unit following.

State its CC50 on Vero E6 cells: "O=C1Nc2ccc(I)cc2/C1=C/c1cc(Br)c(O)c(Br)c1"
11.2 µM

State its CC50 on Vero E6 cells: "CC(C)c1ccc2c(c1)c(SC(C)(C)C)c(CC(C)(C)C(=O)O)n2Cc1ccc(Cl)cc1"
14.1 µM

Continuing:
State its CC50 on Vero E6 cells: "O=C(O)Cc1cccc(OCCCN(Cc2cccc(C(F)(F)F)c2Cl)CC(c2ccccc2)c2ccccc2)c1"
14.1 µM

====

Here's what we have: pIC50 numbers for SARS-CoV-2 3CL^pro (Severe acute respiratory syndrome coronavirus 2, UniProt P0DTD1).
Give bare numbers, as −log10 of the molar value.

Record request: pIC50 value, item "O=C(O)c1ccc(N2C(=O)/C(=C\c3ccc(-c4ccc([N+](=O)[O-])cc4)o3)C=C2c2ccccc2)cc1"
4.74

Continue with the next compound.
Record request: pIC50 value, item "O=C(O)Cc1cccc(OCCCN(Cc2cccc(C(F)(F)F)c2Cl)CC(c2ccccc2)c2ccccc2)c1"
4.67

====

Molecular target: SARS-CoV-2 3CL^pro (Severe acute respiratory syndrome coronavirus 2, UniProt P0DTD1)
Format: biochemical
Settings: Table 2, compounds with partial fluorescence quenching effect
Assign 3CL^pro inhibition max resp to each entry below.
One number for each entry, in %.

Examples from the recorded data:
Record request: 3CL^pro inhibition max resp value, item "CC#C[C@@H](CC(=O)O)c1ccc(OCc2cccc(-c3ccc(C(F)(F)F)cc3)c2)cc1"
65.79

Record request: 3CL^pro inhibition max resp value, item "O=C1Nc2ccc(I)cc2/C1=C/c1cc(Br)c(O)c(Br)c1"
63.16

List the reported 3CL^pro inhibition max resp of each compound below.
1. CC(C)c1ccc2c(c1)c(SC(C)(C)C)c(CC(C)(C)C(=O)O)n2Cc1ccc(Cl)cc1
2. CCCCCCCCCCCCCCCc1cccc(O)c1C(=O)O

1: 109.11; 2: 105.9

====

System: Vero E6 cells
Conditions: Table 2 quenching compounds
Experimental readout: Vero E6 cytotoxicity efficacy (%)
Give bare numbers, in %.

Examples from the recorded data:
Record request: Vero E6 cytotoxicity efficacy value, item "CC(C)c1ccc2c(c1)c(SC(C)(C)C)c(CC(C)(C)C(=O)O)n2Cc1ccc(Cl)cc1"
40.83

Record request: Vero E6 cytotoxicity efficacy value, item "O=C(O)Cc1cccc(OCCCN(Cc2cccc(C(F)(F)F)c2Cl)CC(c2ccccc2)c2ccccc2)c1"
82.34

Record request: Vero E6 cytotoxicity efficacy value, item "CCCCCCCCCCCCCCCc1cccc(O)c1C(=O)O"
72.92

List the reported Vero E6 cytotoxicity efficacy of each compound below.
1. CCCCCCCc1ccc(CCc2cccc(O)c2C(=O)O)cc1
2. Cc1cc(O[C@@H](CCC(F)(F)F)c2ccc(C(=O)NCCC(=O)O)cc2)cc(C)c1-c1ccc(C(C)(C)C)cc1
3. O=C1Nc2ccc(I)cc2/C1=C/c1cc(Br)c(O)c(Br)c1
4. Oc1c(Cl)cc(Cl)c(Cl)c1Cc1c(O)c(Cl)cc(Cl)c1Cl
5. CC1=NN(c2ccc(C)c(C)c2)C(=O)/C1=N\Nc1cccc(-c2cccc(C(=O)O)c2)c1O

23.42
36.97
20.1
63.02
68.67

Record request: Vero E6 cytotoxicity efficacy value, item "CC#C[C@@H](CC(=O)O)c1ccc(OCc2cccc(-c3ccc(C(F)(F)F)cc3)c2)cc1"
20.2
